This collection of values is drawn from patent US5002942A.

molecular target: calcium channel (Cavia porcellus, UniProt O35505); construct: The taenia coli excised from a male guinea pig; from tissue; host or cells: guinea pig taenia coli (excised smooth muscle strip); experiment: Calcium channel blocking action (calcium-induced contraction of excised taenia coli); conditions: 0.5 h, test compound 10^-8 g/ml, 30 minutes incubation, guinea pig taenia coli, hydrochlorides (Example 34: fumarate)
Sequence (O35505 whole entry): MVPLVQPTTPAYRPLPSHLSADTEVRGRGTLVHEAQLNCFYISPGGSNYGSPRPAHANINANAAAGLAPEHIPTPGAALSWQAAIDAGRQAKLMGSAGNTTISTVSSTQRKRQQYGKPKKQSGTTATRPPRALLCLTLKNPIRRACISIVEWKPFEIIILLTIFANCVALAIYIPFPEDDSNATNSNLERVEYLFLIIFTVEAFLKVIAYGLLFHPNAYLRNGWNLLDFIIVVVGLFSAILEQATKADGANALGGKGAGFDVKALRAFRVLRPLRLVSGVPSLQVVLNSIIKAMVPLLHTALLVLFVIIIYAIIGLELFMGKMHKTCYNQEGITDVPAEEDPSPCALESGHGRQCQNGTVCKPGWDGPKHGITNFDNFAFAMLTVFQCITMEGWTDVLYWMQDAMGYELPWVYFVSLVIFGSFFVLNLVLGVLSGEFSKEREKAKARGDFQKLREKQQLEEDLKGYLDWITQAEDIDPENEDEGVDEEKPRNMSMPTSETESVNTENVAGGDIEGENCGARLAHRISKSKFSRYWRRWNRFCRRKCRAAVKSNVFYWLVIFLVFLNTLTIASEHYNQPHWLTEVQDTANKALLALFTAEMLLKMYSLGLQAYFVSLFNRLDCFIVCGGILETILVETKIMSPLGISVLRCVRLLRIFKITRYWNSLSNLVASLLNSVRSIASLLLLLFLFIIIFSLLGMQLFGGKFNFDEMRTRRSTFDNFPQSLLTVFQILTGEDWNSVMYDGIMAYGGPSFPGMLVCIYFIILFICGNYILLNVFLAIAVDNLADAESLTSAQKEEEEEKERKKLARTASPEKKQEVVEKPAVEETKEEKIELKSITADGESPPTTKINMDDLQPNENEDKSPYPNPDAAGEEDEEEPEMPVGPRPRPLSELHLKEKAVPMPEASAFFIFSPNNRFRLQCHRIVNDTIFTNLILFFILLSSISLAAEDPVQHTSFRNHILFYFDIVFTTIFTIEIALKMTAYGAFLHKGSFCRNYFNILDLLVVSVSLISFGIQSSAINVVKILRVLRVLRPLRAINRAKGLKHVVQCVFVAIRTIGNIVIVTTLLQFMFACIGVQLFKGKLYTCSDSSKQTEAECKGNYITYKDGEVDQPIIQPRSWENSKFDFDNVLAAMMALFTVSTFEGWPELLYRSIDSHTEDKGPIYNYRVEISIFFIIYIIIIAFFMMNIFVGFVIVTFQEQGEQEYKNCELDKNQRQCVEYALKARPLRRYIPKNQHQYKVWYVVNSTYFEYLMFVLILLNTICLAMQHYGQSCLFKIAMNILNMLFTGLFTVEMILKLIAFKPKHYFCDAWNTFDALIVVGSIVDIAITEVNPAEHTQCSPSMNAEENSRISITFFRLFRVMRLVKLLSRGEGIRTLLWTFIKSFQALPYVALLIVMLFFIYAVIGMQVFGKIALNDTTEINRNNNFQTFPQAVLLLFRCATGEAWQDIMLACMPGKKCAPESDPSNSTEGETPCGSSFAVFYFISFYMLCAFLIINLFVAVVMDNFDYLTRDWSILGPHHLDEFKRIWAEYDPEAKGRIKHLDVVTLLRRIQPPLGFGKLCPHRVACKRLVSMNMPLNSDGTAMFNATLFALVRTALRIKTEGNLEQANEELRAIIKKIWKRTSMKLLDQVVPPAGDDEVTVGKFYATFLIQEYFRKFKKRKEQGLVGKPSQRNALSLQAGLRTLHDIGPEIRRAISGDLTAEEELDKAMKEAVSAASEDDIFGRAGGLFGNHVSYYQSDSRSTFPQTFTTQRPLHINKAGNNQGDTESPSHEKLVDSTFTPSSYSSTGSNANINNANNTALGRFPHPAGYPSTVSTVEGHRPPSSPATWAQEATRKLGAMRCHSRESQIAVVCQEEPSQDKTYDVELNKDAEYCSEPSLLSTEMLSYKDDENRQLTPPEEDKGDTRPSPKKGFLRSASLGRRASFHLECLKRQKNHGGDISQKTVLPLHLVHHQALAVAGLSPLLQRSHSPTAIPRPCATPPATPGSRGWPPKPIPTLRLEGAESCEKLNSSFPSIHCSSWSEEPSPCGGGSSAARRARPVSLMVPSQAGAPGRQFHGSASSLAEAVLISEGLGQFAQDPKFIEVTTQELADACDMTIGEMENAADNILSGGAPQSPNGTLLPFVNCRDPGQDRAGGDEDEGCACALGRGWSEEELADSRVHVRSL
Reported values of inhibition at 0.01 µg/mL for individual entries
Reply with just the number (in %).

Reference set (3 entries):
COc1ccc([C@@H]2Sc3cc(Oc4ccc(F)cc4)ccc3N(CCN(C)C)C(=O)[C@@H]2OC(C)=O)cc1 (racemic) [Example 22]; 52
COc1ccc([C@@H]2Sc3cc(Oc4ccc(F)cc4)ccc3N(CCN(C)C)C(=O)[C@@H]2OC(C)=O)cc1 [Example 14]; 94
COc1ccc([C@@H]2Sc3cc(Oc4ccccc4)ccc3N(CCN(C)C)C(=O)[C@@H]2OC(C)=O)cc1F (racemic) [Example 4]; 84

Incoming: Need inhibition at 0.01 µg/mL, item COc1ccc([C@@H]2Sc3cc(OCc4ccccc4)ccc3N(CCN(C)C)C(=O)[C@@H]2OC(C)=O)cc1 (racemic) [(±)-8-BzO-diltiazem, reference compound]
Outgoing: 55

Incoming: What about this compound? COc1ccc([C@@H]2Sc3cc(Oc4ccc(Cl)cc4)ccc3N(CCN(C)C)C(=O)[C@@H]2OC(C)=O)cc1 (relative stereo)
Outgoing: 56

Incoming: What about this compound? COc1ccc([C@@H]2Sc3cc(Oc4ccccc4)ccc3N(CCN(C)C)C(=O)[C@@H]2OC(C)=O)cc1 (racemic) [Example 2]
Outgoing: 58

Incoming: What about this compound? COc1ccc([C@@H]2Sc3cc(Cc4ccc(F)cc4)ccc3N(CCN(C)C)C(=O)[C@@H]2OC(C)=O)cc1
Outgoing: 69

Incoming: What about this compound? CC(=O)O[C@H]1C(=O)N(CCN(C)C)c2ccc(Oc3ccccc3)cc2S[C@H]1c1ccc2c(c1)OCO2 (relative stereo)
Outgoing: 53

---

Reported values of inhibition at 0.01 µg/mL for individual entries
target: calcium channel (Cavia porcellus, UniProt O35505); construct: The taenia coli excised from a male guinea pig; from tissue; host or cells: guinea pig taenia coli (excised smooth muscle strip); experiment: Calcium channel blocking action (calcium-induced contraction of excised taenia coli); details: 0.5 h, test compound 10^-8 g/ml, 30 minutes incubation, guinea pig taenia coli, hydrochlorides (Example 34: fumarate)
Reply with just the number (in %).

Reference set (5 entries):
COc1ccc(Oc2ccc3c(c2)S[C@@H](c2ccc(OC)cc2)[C@@H](OC(C)=O)C(=O)N3CCN(C)C)cc1 (relative stereo); 59
COc1ccc([C@@H]2Sc3cc(Oc4ccc(F)cc4)ccc3N(CCN(C)C)C(=O)[C@@H]2OC(C)=O)cc1F [Example 32]; 100
COc1ccc([C@@H]2Sc3ccccc3N(CCN(C)C)C(=O)[C@@H]2OC(C)=O)cc1 [(+)-diltiazem, reference compound]; 20
COc1ccc([C@@H]2Sc3cc(Oc4ccccc4)ccc3N(CCN(C)C)C(=O)[C@@H]2OC(C)=O)cc1 [Example 12]; 86
COc1ccc([C@@H]2Sc3cc(Oc4ccc5c(c4)OCO5)ccc3N(CCN(C)C)C(=O)[C@@H]2OC(C)=O)cc1; 88

# context switch: different molecule, same inhibition at 0.01 µg/mL
Incoming: Need inhibition at 0.01 µg/mL, item COc1ccc([C@@H]2Sc3cc(OC)ccc3N(CCN(C)C)C(=O)[C@@H]2OC(C)=O)cc1 (relative stereo) [(±)-8-MeO-diltiazem, reference compound]
Outgoing: 67

---

tested on: SHR (spontaneously hypertensive rats); experiment: Antihypertensive action in SHR; format: in vivo; details: Dose 30 mg/kg, conscious male SHR, hydrochlorides, 24 hours
Lab note: anything with Half-time of hypotension action at or over 10 h counts as t; the rest go in f.

Solved cases below.
COc1ccc([C@@H]2Sc3cc(Oc4ccccc4)ccc3N(CCN(C)C)C(=O)[C@@H]2OC(C)=O)cc1F (racemic); t
COc1ccc([C@@H]2Sc3cc(Oc4ccccc4)ccc3N(CCN(C)C)C(=O)[C@@H]2OC(C)=O)cc1 (racemic); t

Incoming: State whether the measured Half-time of hypotension action reaches 10 h, counting equality as reaching it, for COc1ccc([C@@H]2Sc3cc(OC)ccc3N(CCN(C)C)C(=O)[C@@H]2OC(C)=O)cc1 (relative stereo) [(±)-8-MeO-diltiazem, reference compound]
Outgoing: f

Incoming: What about this molecule? COc1ccc([C@@H]2Sc3ccccc3N(CCN(C)C)C(=O)[C@@H]2OC(C)=O)cc1 (relative stereo) [(±)-diltiazem, reference compound]
Outgoing: f

Incoming: What about this molecule? COc1ccc([C@@H]2Sc3cc(OCc4ccccc4)ccc3N(CCN(C)C)C(=O)[C@@H]2OC(C)=O)cc1 (racemic) [(±)-8-BzO-diltiazem, reference compound]
Outgoing: f

Incoming: What about this molecule? COc1ccc([C@@H]2Sc3cc(Cl)ccc3N(CCN(C)C)C(=O)[C@@H]2OC(C)=O)cc1 (relative stereo) [(±)-8-Cl-diltiazem, reference compound]
Outgoing: f

---

test system: SHR (spontaneously hypertensive rats); test: Antihypertensive action in SHR; format: in vivo; conditions: Rattus norvegicus, po; Dose 30 mg/kg, conscious male SHR, hydrochlorides, 24 hours; read-out: Maximum hypotension (%)
Reported values of change in vivo at 30 mg/kg for individual entries
Hey, just the number and the unit after it is fine.

Reference set (2 entries):
COc1ccc([C@@H]2Sc3cc(Oc4ccccc4)ccc3N(CCN(C)C)C(=O)[C@@H]2OC(C)=O)cc1 (racemic) [Example 2]; -34%
COc1ccc([C@@H]2Sc3cc(Oc4ccccc4)ccc3N(CCN(C)C)C(=O)[C@@H]2OC(C)=O)cc1F (racemic) [Example 4]; -36%

Incoming: Need change in vivo at 30 mg/kg, item COc1ccc([C@@H]2Sc3cc(OCc4ccccc4)ccc3N(CCN(C)C)C(=O)[C@@H]2OC(C)=O)cc1 (racemic) [(±)-8-BzO-diltiazem, reference compound]
Outgoing: -19%

---

Reported values of inhibition at 0.01 µg/mL for individual entries
biological target: calcium channel (Cavia porcellus); construct: The taenia coli excised from a male guinea pig; from tissue; host or cells: guinea pig taenia coli (excised smooth muscle strip); assay: Calcium channel blocking action (calcium-induced contraction of excised taenia coli); conditions: 0.5 h, test compound 10^-8 g/ml, 30 minutes incubation, guinea pig taenia coli, hydrochlorides (Example 34: fumarate)
Hey, just the number and the unit after it is fine.

CCN(CC)CCN1C(=O)[C@H](OC(C)=O)[C@H](c2ccc(OC)cc2)Sc2cc(Oc3ccccc3)ccc21; 80%

Incoming: Need inhibition at 0.01 µg/mL, item COc1ccc([C@@H]2Sc3ccccc3N(CCN(C)C)C(=O)[C@@H]2OC(C)=O)cc1 (relative stereo) [(±)-diltiazem, reference compound]
Outgoing: 11%

---

tested on: SHR (spontaneously hypertensive rats); experiment: Antihypertensive action in SHR; type: in vivo; settings: Rattus norvegicus, po; Dose 30 mg/kg, conscious male SHR, hydrochlorides, 24 hours; read-out: Maximum hypotension (%)
readout_type: change in vivo at 30 mg/kg (%)
Reply with just the number (in %).

COc1ccc([C@@H]2Sc3cc(OC)ccc3N(CCN(C)C)C(=O)[C@@H]2OC(C)=O)cc1 (relative stereo) [(±)-8-MeO-diltiazem, reference compound]; -35

Incoming: Need change in vivo at 30 mg/kg, item COc1ccc([C@@H]2Sc3cc(Cl)ccc3N(CCN(C)C)C(=O)[C@@H]2OC(C)=O)cc1 (relative stereo) [(±)-8-Cl-diltiazem, reference compound]
Outgoing: -32

Incoming: What about this molecule? COc1ccc([C@@H]2Sc3ccccc3N(CCN(C)C)C(=O)[C@@H]2OC(C)=O)cc1 (relative stereo) [(±)-diltiazem, reference compound]
Outgoing: -17

---

biological target: calcium channel (Cavia porcellus, UniProt O35505); construct: The taenia coli excised from a male guinea pig; from tissue; host or cells: guinea pig taenia coli (excised smooth muscle strip); assay: Calcium channel blocking action (calcium-induced contraction of excised taenia coli); details: 0.5 h, test compound 10^-8 g/ml, 30 minutes incubation, guinea pig taenia coli, hydrochlorides (Example 34: fumarate)
Reported values of inhibition at 0.01 µg/mL for individual entries
Reply with just the number (in %).

Reference set (4 entries):
COc1ccc([C@@H]2Sc3cc(Cl)ccc3N(CCN(C)C)C(=O)[C@@H]2OC(C)=O)cc1 (relative stereo) [(±)-8-Cl-diltiazem, reference compound]; 56
COc1ccc([C@@H]2Sc3cc(Cc4cccs4)ccc3N(CCN(C)C)C(=O)[C@@H]2OC(C)=O)cc1 [Example 20]; 57
COc1ccc([C@@H]2Sc3cc(Oc4ccccc4)ccc3N(CCN(C)C)C(=O)[C@@H]2OC(C)=O)cc1F [Example 16]; 80
COc1ccc([C@@H]2Sc3cc(Oc4ccc(F)cc4)ccc3N(CCN(C)C)C(=O)[C@@H]2OC(C)=O)cc1F (racemic) [Example 24]; 93

# context switch: different compound, same inhibition at 0.01 µg/mL
Incoming: Need inhibition at 0.01 µg/mL, item COc1ccc([C@@H]2Sc3cc(Cc4ccccc4)ccc3N(CCN(C)C)C(=O)[C@@H]2OC(C)=O)cc1 [Example 18]
Outgoing: 77
